# experimentalSystem: human epidermal growth factor receptor 2 (HER2) (human, UniProt P04626 23-1255)
# experimentSummary: cell-based or functional assay
Under this convention, label 1 denotes EC50 of AU565 cell kill, anti-kappa-ETA'-conjugated antibody strictly below 0.03 µg/mL and label 0 denotes EC50 of AU565 cell kill, anti-kappa-ETA'-conjugated antibody at or above 0.03 µg/mL.

Exercise: Is EC50 of AU565 cell kill, anti-kappa-ETA'-conjugated antibody strictly under 0.03 µg/mL for the entry HER2 antibody 129 (antibody, V domains shown) VH: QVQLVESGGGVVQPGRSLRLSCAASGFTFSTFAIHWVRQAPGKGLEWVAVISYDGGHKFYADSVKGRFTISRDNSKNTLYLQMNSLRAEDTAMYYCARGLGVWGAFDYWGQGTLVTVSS VL: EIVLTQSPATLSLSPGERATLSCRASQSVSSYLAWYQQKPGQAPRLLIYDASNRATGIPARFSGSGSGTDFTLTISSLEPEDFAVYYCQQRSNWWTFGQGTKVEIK ?
Key: label 0

Exercise: Is EC50 of AU565 cell kill, anti-kappa-ETA'-conjugated antibody strictly under 0.03 µg/mL for the entry HER2 antibody 169 (antibody, V domains shown) VH: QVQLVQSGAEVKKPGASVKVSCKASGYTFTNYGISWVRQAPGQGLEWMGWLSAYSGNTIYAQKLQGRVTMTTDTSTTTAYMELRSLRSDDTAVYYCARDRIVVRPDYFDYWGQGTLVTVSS VL: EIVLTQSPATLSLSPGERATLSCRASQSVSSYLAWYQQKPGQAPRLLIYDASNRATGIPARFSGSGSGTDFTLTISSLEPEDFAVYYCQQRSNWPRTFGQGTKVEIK ?
Key: label 0

Exercise: Is EC50 of AU565 cell kill, anti-kappa-ETA'-conjugated antibody strictly under 0.03 µg/mL for the entry HER2 antibody 098 (antibody, V domains shown, also called PC1014-098; TH1014-098) VH: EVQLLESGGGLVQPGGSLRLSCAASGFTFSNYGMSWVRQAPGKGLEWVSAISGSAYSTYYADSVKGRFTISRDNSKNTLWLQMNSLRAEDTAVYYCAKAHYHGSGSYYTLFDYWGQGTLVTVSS VL: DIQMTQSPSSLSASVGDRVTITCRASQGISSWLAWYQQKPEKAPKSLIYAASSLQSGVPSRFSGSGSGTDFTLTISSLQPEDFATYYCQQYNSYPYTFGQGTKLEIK ?
Key: label 1

Exercise: Is EC50 of AU565 cell kill, anti-kappa-ETA'-conjugated antibody strictly under 0.03 µg/mL for the entry HER2 antibody 025 (antibody, V domains shown, also called HuMab-025; PC1014-025) VH: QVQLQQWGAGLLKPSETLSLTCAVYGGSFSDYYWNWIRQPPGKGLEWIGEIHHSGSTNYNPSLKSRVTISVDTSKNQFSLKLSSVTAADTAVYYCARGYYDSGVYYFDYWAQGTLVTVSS VL: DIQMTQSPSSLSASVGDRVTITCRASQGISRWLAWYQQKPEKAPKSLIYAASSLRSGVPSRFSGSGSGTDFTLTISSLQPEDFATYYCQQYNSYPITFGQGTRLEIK ?
Key: label 1

Exercise: Is EC50 of AU565 cell kill, anti-kappa-ETA'-conjugated antibody strictly under 0.03 µg/mL for the entry HER2 antibody 091 (antibody, V domains shown) VH: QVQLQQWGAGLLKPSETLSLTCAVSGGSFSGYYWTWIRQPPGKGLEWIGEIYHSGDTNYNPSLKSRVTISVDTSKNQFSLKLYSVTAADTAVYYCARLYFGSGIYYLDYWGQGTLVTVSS VL: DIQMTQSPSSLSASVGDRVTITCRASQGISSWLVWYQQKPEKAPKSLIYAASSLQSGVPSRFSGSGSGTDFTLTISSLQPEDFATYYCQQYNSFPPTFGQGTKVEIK ?
Key: label 0
